Data origin, for the record: ChEMBL document CHEMBL4229478

experiment: Tmax in tumor of BALB/c mouse xenografted with mouse 4T1 cells at 10 mg/kg, iv measured after […] by fluorescence assay; assay type: ADME, organism-based, Neoplasm
Property Label: Tmax (h)

{"columns": ["Compound", "Recorded Result"],
 "data": [
  ["C=CC1=C(C)c2cc3[nH]c(cc4nc(cc5[nH]c(cc1n2)c(C)c5CCC(=O)[O-])C(CCC(=O)[O-])=C4C)c(C)c3C(C)OCCCCCC.[Na+].[Na+] (stereo not drawn)", 12],
  ["COC(C)C1=C(C)c2cc3[nH]c(cc4nc(cc5[nH]c(cc1n2)c(C)c5CCC(=O)O)C(CCC(=O)O)=C4C)c(C)c3C(C)O (stereo not drawn)", 12],
  ["C=Cc1c(C)c2cc3nc(cc4[nH]c(cc5nc(cc1[nH]2)C(C)=C5C(C)OCCCCCC)c(C)c4CCC(=O)[O-])C(CCC(=O)[O-])=C3C.[Na+].[Na+] (stereo not drawn)", 12]
]}

----------
assay: Selectivity index, ratio of dark toxicity against human MDA-MB-231 cells at 0.5 uM to phototoxicity against human MDA-MB-231 cells at 0.5 uM; type: cell-based; conditions: read-out: Selectivity Index
Property Label: selectivity ratio at 0.5 µM
Output spec: single numeric token, no unit.

{"columns": ["Molecule", "selectivity ratio at 0.5 µM"],
 "data": [
  ["C=Cc1c(C)c2cc3nc(cc4[nH]c(cc5nc(cc1[nH]2)C(C)=C5C(C)OCCCCCC)c(C)c4CCC(=O)[O-])C(CCC(=O)[O-])=C3C.[Na+].[Na+] (configuration not stated)", 161]
]}

The record that follows has no selectivity ratio at 0.5 µM shown yet.
// query Name the recorded selectivity ratio at 0.5 µM of the item C=CC1=C(C)c2cc3[nH]c(cc4nc(cc5[nH]c(cc1n2)c(C)c5CCC(=O)[O-])C(CCC(=O)[O-])=C4C)c(C)c3C(C)OCCCCCC.[Na+].[Na+] (configuration not stated) in your answer.
// result 59.6

----------
experiment: Selectivity index, ratio of dark toxicity against human MCF7 at 5 uM cells to phototoxicity against human MCF7 cells at 5 uM; type: cell-based; conditions: read-out: Selectivity Index
Property Label: selectivity ratio at 5 µM
Output spec: single numeric token, no unit.

// query Name the recorded selectivity ratio at 5 µM of the item COC(C)C1=C(C)c2cc3[nH]c(cc4nc(cc5[nH]c(cc1n2)c(C)c5CCC(=O)O)C(CCC(=O)O)=C4C)c(C)c3C(C)O (stereo unspecified) in your answer.
// result 16.8

----------
assay: Selectivity index, ratio of dark toxicity against mouse 4T1 cells at 5 uM to phototoxicity against mouse 4T1 cells at 5 uM; type: cell-based; settings: read-out: Selectivity Index
Property Label: selectivity ratio at 5 µM
Output spec: single numeric token, no unit.

// query Name the recorded selectivity ratio at 5 µM of the item COC(C)C1=C(C)c2cc3[nH]c(cc4nc(cc5[nH]c(cc1n2)c(C)c5CCC(=O)O)C(CCC(=O)O)=C4C)c(C)c3C(C)O (stereo unspecified) in your answer.
// result 12
